TARGET SYSTEM: WRN (human, UniProt Q14191 1-1432)
Sequence (Q14191 whole entry): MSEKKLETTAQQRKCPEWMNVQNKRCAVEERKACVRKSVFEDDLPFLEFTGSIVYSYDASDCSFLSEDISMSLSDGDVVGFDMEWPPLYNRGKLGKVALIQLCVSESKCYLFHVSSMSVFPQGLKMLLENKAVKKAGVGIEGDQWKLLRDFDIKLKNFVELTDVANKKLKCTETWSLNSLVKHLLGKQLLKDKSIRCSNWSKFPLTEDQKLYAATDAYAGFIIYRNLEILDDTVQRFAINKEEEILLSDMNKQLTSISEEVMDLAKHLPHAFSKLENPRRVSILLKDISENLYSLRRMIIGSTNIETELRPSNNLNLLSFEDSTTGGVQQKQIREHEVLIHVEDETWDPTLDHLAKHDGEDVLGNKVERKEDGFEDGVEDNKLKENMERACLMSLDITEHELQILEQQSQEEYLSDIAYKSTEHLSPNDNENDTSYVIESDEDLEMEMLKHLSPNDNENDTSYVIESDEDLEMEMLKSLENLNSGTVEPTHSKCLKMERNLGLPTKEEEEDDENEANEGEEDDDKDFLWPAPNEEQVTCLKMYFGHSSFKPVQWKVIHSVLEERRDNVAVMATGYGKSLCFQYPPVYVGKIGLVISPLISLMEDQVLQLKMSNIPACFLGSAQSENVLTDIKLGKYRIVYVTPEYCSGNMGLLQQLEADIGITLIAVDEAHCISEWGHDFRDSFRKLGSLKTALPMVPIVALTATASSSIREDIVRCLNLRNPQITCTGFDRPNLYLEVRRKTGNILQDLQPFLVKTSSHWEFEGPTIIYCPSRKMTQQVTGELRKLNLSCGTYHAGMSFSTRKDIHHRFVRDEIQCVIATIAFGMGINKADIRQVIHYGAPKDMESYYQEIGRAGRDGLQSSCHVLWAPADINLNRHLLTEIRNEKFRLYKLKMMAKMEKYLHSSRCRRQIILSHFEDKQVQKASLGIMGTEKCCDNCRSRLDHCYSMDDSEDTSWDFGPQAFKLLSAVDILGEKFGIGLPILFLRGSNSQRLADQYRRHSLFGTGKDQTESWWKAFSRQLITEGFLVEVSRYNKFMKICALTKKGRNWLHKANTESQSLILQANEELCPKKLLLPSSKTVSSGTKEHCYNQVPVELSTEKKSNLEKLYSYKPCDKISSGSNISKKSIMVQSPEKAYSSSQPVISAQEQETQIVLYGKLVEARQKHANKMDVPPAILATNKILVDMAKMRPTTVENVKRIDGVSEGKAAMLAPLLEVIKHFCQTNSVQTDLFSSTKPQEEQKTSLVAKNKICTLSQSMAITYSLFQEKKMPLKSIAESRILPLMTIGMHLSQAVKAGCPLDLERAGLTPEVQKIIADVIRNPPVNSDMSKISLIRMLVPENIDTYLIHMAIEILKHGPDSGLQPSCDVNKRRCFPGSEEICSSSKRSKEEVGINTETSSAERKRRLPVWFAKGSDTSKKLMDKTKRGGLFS
METHOD DESCRIPTION: EMSA; ATPgS, 4 mM Mg2+; EMSA: 40 mM Tris-HCl pH 8.0, 4 mM MgCl2, 5 mM DTT, 1 mM ATPgS, 0.1 ug BSA in 10 ul, 4 C, 20 min; +10 mM KCl for quadruplexes; 4% gel, 0.5x Tris-glycine pH 8.3
STATED CONDITIONS: protein: recombinant; tags: His6; label: 5'-32P on strand 1; 20 bp; 13 nt 5' and 13 nt 3' tails on strand 2
OUTCOME MEASURE: Kd (nM)
State the answer as a number, implicitly in nM.

Quick one: Kd for 20/46 partial duplex (dsDNA, 3'-terminal inverted dC on the 20-mer) DNA 1: CGCTAGCAATATTCTGCAGC DNA 2: GCGCGGAAGCTTGGCTGCAGAATATTGCTAGCGGGAAATCGGCGCG ? 2.3

Where do these numbers come from? They come from paper PMC3260238.
